From: PubChem BioAssay (NCI)

- Tested on: U251 CNS
- Assay procedure: NCI-60 one-dose screen, 48 h
- Condition: 10 µM unless noted
- Procedure: Growth inhibition of the U251 human tumor cell line is measured as a screen for anti-cancer activity. Cells are grown in 96 well plates and exposed to the test compound for 48 hours. Compounds are tested at a single concentration, which is 10^-5 M for most compounds. The reported endpoint is percent growth (GI% or GIPRCNT), where numbers from 0 - 100% represent growth inhibition, and numbers from -100% - 0 represent cell death. For example, a value of 40 represents 60% growth inhibition. […]
Compounds without any hit were thinned out: in the full panel of roughly 83,000, 20% have a hit. Active and inactive are the calls of the source. Rule for the calls: active = growth percent below 10; inactive = the rest.
Classes to choose from: Y for active, N for inactive

Past entries and their recorded results:
Compound: C1CN(SSN2CCOCC2)CCO1
Assay target: U251 CNS
Assigned category: Y
--
Compound: CCOc1nc(-c2ccccc2)cc2c(O)c(C(=O)N/N=C/c3ccccc3)[nH]c(=O)c12
Assay target: U251 CNS
Assigned category: N
--
Compound: C=C(C)[C@@H]1CC[C@]2(CO)CC[C@]3(C)[C@H](CC[C@@H]4[C@@]5(C)CC[C@H](NCO)C(C)(C)[C@@H]5CC[C@]43C)[C@@H]12
Assay target: U251 CNS
Assigned category: Y

query: Give the logged outcome of this assay for the following compound: CCOC(=O)c1cc2c(n1C)-c1nc(NC(C)=O)sc1CCC2
result: N

query: Per the assay record, what outcome was assigned to C=CC(=O)N1CCN(c2cccc(Oc3nccc(Nc4nnc(-c5ccc(Br)cc5)s4)n3)c2)CC1 ?
result: N

query: Look up the recorded call for C=C(C)[C@@H]1CC[C@]2(C(=O)O)CC[C@]3(C)[C@H](CC[C@@H]4[C@@]5(C)CCC(NC(=O)c6cccc(OC(C)=O)c6OC(C)=O)C(C)(C)[C@@H]5CC[C@]43C)[C@@H]12 (stereo not given in full) in this test.
result: Y
